# key: entry, value: ke, population estimate (RSE%)
experiment: Plasma pharmacokinetics after a single dose of liquid or solid oat product (compartmental PK model); type: in vivo, humans; conditions: liquid, Table S1 compartmental model

Examples from the recorded data:
[[record]]
record_smiles = "O=C(/C=C/c1ccc(O)c(O)c1)Nc1ccc(O)cc1C(=O)O"
result = "0.43 (17) 1/h"

[[record]]
record_smiles = "COc1cc(/C=C/C=C/C(=O)Nc2ccc(O)cc2C(=O)O)ccc1O"
result = "0.52 (14) 1/h"


Per the record, O=C(/C=C/c1ccc(O)cc1)Nc1ccc(O)cc1C(=O)O has ke, population estimate (RSE%) of 0.52 (10) 1/h

###

Item-by-item account of V/F
experiment: Plasma pharmacokinetics after a single dose of liquid or solid oat product (compartmental PK model); assay type: in vivo, humans; parameters: unit not given here; settings: liquid, single dose, distribution volume over bioavailability

Examples with answers:
[[record]]
compound = "O=C(/C=C/c1ccc(O)c(O)c1)Nc1ccc(O)cc1C(=O)O [AVA 2c]"
quantity_measured = "V/F"
result = "430 ± 42^2"

[[record]]
compound = "COc1cc(/C=C/C(=O)Nc2ccc(O)cc2C(=O)O)ccc1O [AVA 2f]"
quantity_measured = "V/F"
result = "1641 ± 168^2"

[[record]]
compound = "COc1cc(/C=C/C=C/C(=O)Nc2ccc(O)cc2C(=O)O)ccc1O [AVA 2fd]"
quantity_measured = "V/F"
result = "211 ± 21^2"


Reported V/F ( CC1OC(OC2C(OC3CCC4(C)C(=CCC5C4CCC4(C)C5CC5OC6(CCC(C)(COC7OC(CO)C(O)C(O)C7O)O6)C(C)C54)C3)OC(CO)C(OC3OC(CO)C(O)C(OC4OC(CO)C(O)C(O)C4O)C3O)C2O)C(O)C(O)C1O (stereo not shown) [AVE B, Avenacoside B] ) = 2079 ± 212

For O=C(/C=C/C=C/c1ccc(O)cc1)Nc1ccc(O)cc1C(=O)O [AVA 2pd] the compound record lists V/F as 131 ± 13^2

// field: V/F; key: CC1OC(OC2C(OC3CCC4(C)C(=CCC5C4CCC4(C)C5CC5OC6(CCC(C)(COC7OC(CO)C(O)C(O)C7O)O6)C(C)C54)C3)OC(CO)C(OC3OC(CO)C(O)C(O)C3O)C2O)C(O)C(O)C1O (stereo not shown) [AVE A, Avenacoside A] ; value = 6718 ± 686^2

// field: V/F; key: O=C(/C=C/c1ccc(O)cc1)Nc1ccc(O)cc1C(=O)O [AVA 2p] ; value = 111 ± 11^1

###

assay: Plasma pharmacokinetics after a single dose of liquid or solid oat product (compartmental PK model); format: in vivo, humans; conditions: solid, Table S1 compartmental model
QUANTITY_MEASURED: V, population estimate (RSE%)

Here is how some molecules turned out for V, population estimate (RSE%).
[[record]]
molecule = "O=C(/C=C/C=C/c1ccc(O)cc1)Nc1ccc(O)cc1C(=O)O [AVA 2pd]"
quantity_measured = "V, population estimate (RSE%)"
result = "190 (22) L"

[[record]]
molecule = "O=C(/C=C/c1ccc(O)c(O)c1)Nc1ccc(O)cc1C(=O)O [AVA 2c]"
quantity_measured = "V, population estimate (RSE%)"
result = "720 (22) L"

[[record]]
molecule = "CC1OC(OC2C(OC3CCC4(C)C(=CCC5C4CCC4(C)C5CC5OC6(CCC(C)(COC7OC(CO)C(O)C(O)C7O)O6)C(C)C54)C3)OC(CO)C(OC3OC(CO)C(O)C(O)C3O)C2O)C(O)C(O)C1O (stereo not shown) [AVE A, Avenacoside A]"
quantity_measured = "V, population estimate (RSE%)"
result = "9700 (2) L"

[[record]]
molecule = "COc1cc(/C=C/C(=O)Nc2ccc(O)cc2C(=O)O)ccc1O [AVA 2f]"
quantity_measured = "V, population estimate (RSE%)"
result = "2600 (5) L"

[[record]]
molecule = "COc1cc(/C=C/C=C/C(=O)Nc2ccc(O)cc2C(=O)O)ccc1O [AVA 2fd]"
quantity_measured = "V, population estimate (RSE%)"
result = "320 (22) L"


V, population estimate (RSE%) reported for this molecule CC1OC(OC2C(OC3CCC4(C)C(=CCC5C4CCC4(C)C5CC5OC6(CCC(C)(COC7OC(CO)C(O)C(O)C7O)O6)C(C)C54)C3)OC(CO)C(OC3OC(CO)C(O)C(OC4OC(CO)C(O)C(O)C4O)C3O)C2O)C(O)C(O)C1O (stereo not shown) [AVE B, Avenacoside B] : 2600 (21) L

Please fill in: V, population estimate (RSE%) reported for O=C(/C=C/c1ccc(O)cc1)Nc1ccc(O)cc1C(=O)O [AVA 2p] = 220 (22) L
